- experiment.notes: Pharmacokinetics in rats after i.v. and oral dosing
- Assay type: in vivo
- conditions.used: rat, plasma; male CD/IGS rats; 1 mg/kg i.v. or 5 mg/kg oral; read-out: PK Parameters (Rat) T1/2 (converted)
readout.type: half-life (h)
The reply should be a number in h, with the unit left off.

Study these solved cases before continuing.
Find the recorded half-life belonging to CC(C)c1cc(N(C)C)c2c(c1O)C(=O)C1=C(O)[C@]3(O)C(=O)C(C(N)=O)=C(O)[C@@H](N(C)C)[C@@H]3C[C@@H]1C2 and report it.
2.5

Find the recorded half-life belonging to CN(C)c1ccc(O)c2c1C[C@H]1C[C@H]3[C@H](N(C)C)C(O)=C(C(N)=O)C(=O)[C@@]3(O)C(O)=C1C2=O [Minocycline, minocycline, reference compound] and report it.
3.6

***
Find the recorded half-life belonging to CN(C)c1cc(-c2cccn2C)c(O)c2c1C[C@H]1C[C@H]3CC(O)=C(C(N)=O)C(=O)[C@@]3(O)C(O)=C1C2=O and report it.
6.4

Find the recorded half-life belonging to CCc1cc(N(C)C)c2c(c1O)C(=O)C1=C(O)[C@]3(O)C(=O)C(C(N)=O)=C(O)C[C@@H]3C[C@@H]1C2 and report it.
3.1

Find the recorded half-life belonging to COC(=O)c1cc(N(C)C)c2c(c1O)C(=O)C1=C(O)[C@]3(O)C(=O)C(C(N)=O)=C(O)C[C@@H]3C[C@@H]1C2 and report it.
3

* * *

- System: collagen-induced arthritis (CIA) in male DBA/1 mice
- experiment.notes: Murine collagen-induced arthritis (CIA) model, Example 2
- Format: in vivo, mouse
- conditions.used: day 3 of dosing; 25 mg/kg/day i.p.
readout.type: Change in Paw Thickness (mm) Mean
The reply should be a number in mm, with the unit left off.

Find the recorded Change in Paw Thickness (mm) Mean belonging to CN(C)c1ccc(O)c2c1C[C@H]1C[C@H]3[C@H](N(C)C)C(O)=C(C(N)=O)C(=O)[C@@]3(O)C(O)=C1C2=O [Minocycline, minocycline, reference compound] and report it.
0.78

Find the recorded Change in Paw Thickness (mm) Mean belonging to COC(=O)c1cc(N(C)C)c2c(c1O)C(=O)C1=C(O)[C@]3(O)C(=O)C(C(N)=O)=C(O)C[C@@H]3C[C@@H]1C2 and report it.
0.46

Find the recorded Change in Paw Thickness (mm) Mean belonging to CN(C)c1cc(-c2cccn2C)c(O)c2c1C[C@H]1C[C@H]3CC(O)=C(C(N)=O)C(=O)[C@@]3(O)C(O)=C1C2=O and report it.
0.55

Find the recorded Change in Paw Thickness (mm) Mean belonging to CCc1cc(N(C)C)c2c(c1O)C(=O)C1=C(O)[C@]3(O)C(=O)C(C(N)=O)=C(O)C[C@@H]3C[C@@H]1C2 and report it.
0.61

***
Find the recorded Change in Paw Thickness (mm) Mean belonging to CC(C)c1cc(N(C)C)c2c(c1O)C(=O)C1=C(O)[C@]3(O)C(=O)C(C(N)=O)=C(O)[C@@H](N(C)C)[C@@H]3C[C@@H]1C2 and report it.
0.33

* * *

In what follows, each item is paired with its MIC for E. coli ATCC25922 (tetracycline sensitive).

Study these solved cases before continuing.
Report MIC for CCc1cc(N(C)C)c2c(c1O)C(=O)C1=C(O)[C@]3(O)C(=O)C(C(N)=O)=C(O)C[C@@H]3C[C@@H]1C2 tested on E. coli ATCC25922 (tetracycline sensitive).
> 64 µg/mL

Report MIC for COC(=O)c1cc(N(C)C)c2c(c1O)C(=O)C1=C(O)[C@]3(O)C(=O)C(C(N)=O)=C(O)C[C@@H]3C[C@@H]1C2 tested on E. coli ATCC25922 (tetracycline sensitive).
> 64 µg/mL

# input for lookup
Report MIC for CN(C)c1ccc(O)c2c1C[C@H]1C[C@H]3[C@H](N(C)C)C(O)=C(C(N)=O)C(=O)[C@@]3(O)C(O)=C1C2=O [Minocycline, minocycline, reference compound] tested on E. coli ATCC25922 (tetracycline sensitive).
1 µg/mL
